Assay: The drug is tested on Subdoligranulum variabile strain: DSM15176 for biotransformation. The drug concentrations were measured before and after a 12-h incubation by liquid-chromatography-coupled mass spectrometry (LC–MS)
Conditions: 2 µM
Endpoint: Bacterial Biotransformation

Here are 10 compounds together with their reported answers.
• CN1CCC(=C2c3ccccc3CC(=O)c3sccc32)CC1.O=C(O)/C=C/C(=O)O [KETOTIFEN FUMARATE] = Compound NOT metabolized
• CCN(CC)CCOCCOC(=O)C1(c2ccccc2)CCCC1.O=C(O)CC(O)(CC(=O)O)C(=O)O [CARBETAPENTANE CITRATE] = Compound metabolized
• COC(=O)C1=C(C)NC(C)=C(C(=O)OC(C)C)C1c1cccc2nonc12 (centres undefined) = Compound NOT metabolized
• CCCN1C[C@H](CSC)C[C@@H]2c3cccc4[nH]cc(c34)C[C@H]21.CS(=O)(=O)O [PERGOLIDE MESYLATE] = Compound NOT metabolized
• C[C@]12CCC(=O)C=C1[C@@H]1C[C@@H]1[C@H]1[C@@H]3[C@@H]4C[C@@H]4[C@@]4(CCC(=O)O4)[C@@]3(C)CC[C@@H]12 = Compound NOT metabolized
• C[C@]12C=CC(=O)C=C1CC[C@@H]1[C@@H]2C(=O)C[C@@]2(C)[C@H]1CC[C@]2(O)C(=O)CO = Compound NOT metabolized
• CN1CCN(CC/C=C2/c3ccccc3Sc3ccc(S(=O)(=O)N(C)C)cc32)CC1 = Compound NOT metabolized
• OC(c1cc(C(F)(F)F)nc2c(C(F)(F)F)cccc12)C1CCCCN1 (centres undefined) = Compound NOT metabolized
• CC(=O)OCC(=O)[C@@]1(O)[C@@H](C)C[C@H]2[C@@H]3CCC4=CC(=O)C=C[C@]4(C)[C@@]3(F)[C@@H](O)C[C@@]21C [BETAMETHASONE ACETATE] = Compound NOT metabolized
• Cc1nc2n(c(=O)c1CCN1CCC(c3noc4cc(F)ccc34)CC1)CCCC2 = Compound metabolized

Short answer for `CC(=O)Oc1ccc(C(c2ccc(OC(C)=O)cc2)c2ccccn2)cc1` : Bacterial Biotransformation was Compound metabolized

Short answer for O=P(O)(O)O.c1ccc(CN(CC2=NCCN2)c2ccccc2)cc1 [ANTAZOLINE PHOSPHATE] : Bacterial Biotransformation was Compound NOT metabolized

Short answer for COc1ccc(CCN(C)CCCC(C#N)(c2ccc(OC)c(OC)c2)C(C)C)cc1OC (centres undefined) : Bacterial Biotransformation was Compound NOT metabolized

Short answer for `OCCOCCN1CCN(C2=Nc3ccccc3Sc3ccccc32)CC1` : Bacterial Biotransformation was Compound NOT metabolized

---

Conditions: bacteroides fragilis, 12 h, 2 µM
Description: The drug is tested on Bacteroides fragilis strain: NCTC 9343 for biotransformation. The drug concentrations were measured before and after a 12-h incubation by liquid-chromatography-coupled mass spectrometry (LC–MS)
Non-standard residues stand in square brackets, D forms with d. Residues, ends and D or L forms follow the SMILES beside them. pGlu = O=C1CC[C@@H](C(=O)O)N1; Thz = O=C(O)[C@@H]1CSCN1
Endpoint: Bacterial Biotransformation

Here are 6 compounds together with their reported answers.
* Nc1nc2ccc(OC(F)(F)F)cc2s1 [RILUZOLE] | Compound NOT metabolized
* Br.CN1CCC[C@@H]1Cc1c[nH]c2ccc(CCS(=O)(=O)c3ccccc3)cc12 [ELETRIPTAN HYDROBROMIDE] | Compound NOT metabolized
* CN1CCc2c(c3ccccc3n2Cc2ccccc2)C1.CN1CCc2c(c3ccccc3n2Cc2ccccc2)C1.O=S(=O)(O)c1cccc2c(S(=O)(=O)O)cccc12 | Compound NOT metabolized
* CNC(=C[N+](=O)[O-])NCCSCc1ccc(CN(C)C)o1 [RANITIDINE] | Compound metabolized
* C=CC[C@@H]1/C=C(\C)C[C@H](C)C[C@H](OC)[C@H]2O[C@@](O)(C(=O)C(=O)N3CCCC[C@H]3C(=O)O[C@H](/C(C)=C/[C@@H]3CC[C@@H](O)[C@H](OC)C3)[C@H](C)[C@@H](O)CC1=O)[C@H](C)C[C@@H]2OC.O [TACROLIMUS] | Compound metabolized
* CN1C(=O)CCS(=O)(=O)C1c1ccc(Cl)cc1 (stereo not given) [CHLORMEZANONE] | Compound NOT metabolized

Short answer for Cc1ccnc2c1NC(=O)c1cccnc1N2C1CC1 [NEVIRAPINE] : Bacterial Biotransformation was Compound NOT metabolized

Short answer for O=C1CC[C@@H](C(=O)N2CSC[C@H]2C(=O)O)N1 [PIDOTIMOD] ([pGlu]-[Thz]-OH) : Bacterial Biotransformation was Compound metabolized

Short answer for CN1CCN(C(=O)O[C@H]2c3nccnc3C(=O)N2c2ccc(Cl)cn2)CC1 [ESZOPICLONE] : Bacterial Biotransformation was Compound NOT metabolized

Short answer for N#Cc1ccc2[nH]cc(CCCCN3CCN(c4ccc5oc(C(N)=O)cc5c4)CC3)c2c1 [VILAZODONE] : Bacterial Biotransformation was Compound metabolized

The measured values listed here are drawn from ChEMBL document CHEMBL5303573.
